System: SF-539 CNS
assay name: NCI-60 one-dose screen, 48 h (100 = growth as untreated, 0 = no growth, -100 = all killed)
conditions used: 10 µM
About 83,000 compounds went through this panel and 20% of them were active in at least one assay; those are over-represented in the sample as a whole.
measured endpoint: growth (%)
Your answer is read as %, so omit the unit and give the number.

Solved cases (5 shown):
compound	growth [%]
Cc1ccc2sc3c(c2c1)Oc1nc[nH]c(=O)c1C3c1cccc(F)c1 (stereo not given)	99.6
COc1ccccc1-n1cc(C#N)c(N)c1C(=O)c1ccc(Cl)cc1Cl	-0.792
CC1(C)CC[C@]2(C(=O)O)CC[C@]3(C)C(=CCC4[C@@]5(C)C[C@@H](O)[C@@H]6OC(c7cccc(F)c7)OC[C@@]6(C)C5CC[C@]43C)C2C1 (stereo not given in full)	70.2
O=C(Nc1ccc(OCc2ccc(F)cc2)cc1)Nc1ccc(Cl)c(C(F)(F)F)c1	8.73
CC(C)(C)c1cc(/C=C2\S/C(=N/c3ncn[nH]3)NC2=O)cc(C(C)(C)C)c1O	18

Prompt: Reported growth for Cc1cc(N=C2NC(=O)/C(=C/c3cc(C(C)(C)C)c(O)c(C(C)(C)C)c3)S2)n[nH]1 : what is it?
Response: 18.9

Prompt: Could you do the same for O=C1NC(=S)S/C1=C\c1cn(-c2ccccc2)nc1-c1ccc([N+](=O)[O-])cc1 , please?
Response: 21

Prompt: Could you do the same for COc1ccc(NCc2cn(-c3ccc(C(=O)O)cc3)nc2-c2ccc(F)cc2)cc1C(F)(F)F , please?
Response: 53.9

Prompt: Could you do the same for Cc1ccc(COc2ccc(NC(=O)Nc3ccc(Cl)c(C(F)(F)F)c3)cc2)cc1 , please?
Response: 78.7

Prompt: Could you do the same for Cn1cc(-c2cc3nc(-c4c[nH]c5ccccc45)cc(N)n3n2)c2cc(Cl)ccc21 , please?
Response: -92.5

====

Tested on: MDA-MB-468 breast
assay name: NCI-60 one-dose screen, 48 h (100 = growth as untreated, 0 = no growth, -100 = all killed)
conditions used: 10 µM unless noted
The panel holds about 83,000 compounds, 20% with a hit somewhere; the sample as a whole holds those more often.
measured endpoint: growth (%)
Your answer is read as %, so omit the unit and give the number.

O=Nc1ccc(O)c2ccccc12 11.7
Cc1ccc([P+](Cc2ccccc2)(c2ccccc2)c2ccccc2)cc1 -13.5
N=C(N)c1ccc(-c2ccc(-c3ccc(F)cc3)s2)s1 -77

Now let's try a different one.
Prompt: Given the entry C=C1C(=O)O[C@H]2[C@H]1CC/C(COC(=O)c1cccnc1)=C\CC[C@@]1(C)O[C@@H]21 , what growth was observed with MDA-MB-468 breast?
Response: 17.6

====

System: MDA-MB-468 breast
assay name: NCI-60 one-dose screen, 48 h (100 = growth as untreated, 0 = no growth, -100 = all killed)
conditions used: 10 µM unless noted
The panel holds about 83,000 compounds, 20% with a hit somewhere; the sample as a whole holds those more often.
Binary label based on growth with cut-off 90%: below gives t, not below gives f.

Prompt: Is the reported growth for O=C1C(Cl)=C(N=Nc2c(Cl)c(O)c3ccccc3c2O)C(=O)c2ccccc21 strictly below 90%?
Response: t

Prompt: Could you do the same for CC[n+]1c(/C=C/c2ccc(N3CCCC3)cc2)cccc1/C=C/c1ccc(N2CCCC2)cc1 , please?
Response: t

Prompt: Could you do the same for O=C(CSc1nc2ccccc2c(=O)n1-c1ccc(Cl)cc1)N/N=C/c1ccc(N2CCCCC2)cc1 , please?
Response: t

Prompt: Could you do the same for C=C1C(=O)O[C@H]2[C@H]1CC/C(COC(=O)NCc1cn(C)c3ccccc13)=C\CC[C@@]1(C)O[C@@H]21 , please?
Response: t

Prompt: Could you do the same for COc1cc(/C=C2\CCCC3=C2N=C2SC(C)=NN2C3c2cc(OC)c(OC)c(OC)c2)cc(OC)c1OC (stereo unspecified) , please?
Response: t

====

Test system: MDA-MB-468 breast
assay name: NCI-60 one-dose screen, 48 h
conditions used: 10 µM unless noted
Procedure: Growth inhibition of the MDA-MB-468 human Breast tumor cell line is measured as a screen for anti-cancer activity. Cells are grown in 96 well plates and exposed to the test compound for 48 hours. Compounds are tested at a single concentration, which is 10^-5 M for most compounds. The reported endpoint is percent growth (GI% or GIPRCNT), where numbers from 0 - 100% represent growth inhibition, and numbers from -100% - 0 represent cell death. […]
The panel holds about 83,000 compounds, 20% with a hit somewhere; the sample as a whole holds those more often. Activity calls are given as the source filed them. Rule for the calls: active = growth percent below 10; inactive = the rest.
Entry note: the call must match one of TRUE for active, FALSE for inactive

Example cases with answers are listed next.
molecule	target or system	group
O=C1Cc2ccccc2C(=O)N1	MDA-MB-468 breast	FALSE
COc1ccc(NC(=O)c2ccc3c(c2)nc(-c2cc4ccccc4[nH]c2=O)n3-c2cc(C(C)(C)C)[nH]n2)cc1	MDA-MB-468 breast	FALSE
CSc1nc(-c2cccs2)c2c(N)[nH]nc2n1	MDA-MB-468 breast	FALSE
O=S(=O)(Nc1ccc(Cl)c(C(F)(F)F)c1)c1ccc(-c2cnc(C3CC3)o2)cc1	MDA-MB-468 breast	TRUE
C=CCCCCCCCCCOC(C)=O	MDA-MB-468 breast	FALSE

Prompt: Please indicate how the test categorized CCN(CC)c1ccc(C2=NN(C(C)=O)C(c3cc(OC)c(OC)c(OC)c3)C2)cc1 (centres undefined) .
Response: FALSE

Prompt: Could you do the same for c1cc(OCCN2CCCCCC2)ccc1CNc1ccc2nc(CCC3CCCCC3)[nH]c2c1 , please?
Response: FALSE

Prompt: Could you do the same for CCNC(=O)Oc1ccc(/C(=C(/C)c2ccc(Cl)cc2)c2ccc(OCCN3CCCC3)cc2)cc1 , please?
Response: FALSE

Prompt: Could you do the same for COc1cc(C2=NN(C(C)=O)C(c3cc(OC)c(OC)c(OC)c3)C2)ccc1O (centres undefined) , please?
Response: FALSE

====

Tested on: MDA-MB-468 breast
assay name: NCI-60 one-dose screen, 48 h (100 = growth as untreated, 0 = no growth, -100 = all killed)
conditions used: 10 µM unless noted
Compounds without any hit were thinned out: in the full panel of roughly 83,000, 20% have a hit.
Here the recorded growth is given for each entry.
Your answer is read as %, so omit the unit and give the number.

Solved cases (5 shown):
Cc1cccc2ccccc12 103
O=S(=O)(c1ccc(NCSc2nc3ccccc3s2)cc1)c1ccc(NCSc2nc3ccccc3s2)cc1 95.8
O=C(NNc1nc2cc(F)ccc2n2cccc12)c1ccncn1 -15.2
C=CCNc1nc(NN2C(=O)c3cccc4cccc(c34)C2=O)nc(-n2cnc3ccccc32)n1 80.5
COc1cc(/C=C/C(=O)c2ccc(-n3cc(CN4CCN(c5cc6c(cc5F)c(=O)c(C(=O)O)cn6C5CC5)CC4)nn3)cc2)cc(OC)c1OC 72.5

Prompt: Reported growth for Cc1cccc(CNc2c3ccccc3nc3ccccc23)c1 : what is it?
Response: -0.391

Prompt: Could you do the same for COc1cc(C)cc2oc3oc(=N)c(C(=O)c4ccccc4)cc3c(=O)c12 , please?
Response: 108

Prompt: Could you do the same for CC(=O)n1c2ccccc2c2ccccc21 , please?
Response: 105

====

Test system: MDA-MB-468 breast
assay name: NCI-60 one-dose screen, 48 h
conditions used: 10 µM unless noted
About 83,000 compounds went through this panel and 20% of them were active in at least one assay; those are over-represented in the sample as a whole. Calls of active or inactive are those of the source. The calls were made as follows: active = growth percent below 10; inactive = the rest.
Entry note: the call must match one of t = active, f = inactive

Example cases with answers are listed next.
compound	group
CCCC(=O)NC(c1cccnc1)c1cc(C(C)=O)c2cccnc2c1O (stereo not given)	f
CC(CCc1ccc(Cl)c(Cl)c1)NCc1ccc(C(C)(C)C)cc1 (stereo not given)	f
O=P(O)(O)C(O)(Cc1cccnc1)P(=O)(O)O	f

Prompt: Please indicate how the test categorized O=C(CN1CCCCC1)Sc1nnc2sc3ccccc3n12 .
Response: f

Prompt: Could you do the same for CCCCCCCCCCCC[n+]1ccccc1 (tested in a mixture with another compound) , please?
Response: t

====

Here the recorded growth is given for each entry.
Test system: MDA-MB-468 breast
assay name: NCI-60 one-dose screen, 48 h (100 = growth as untreated, 0 = no growth, -100 = all killed)
conditions used: 10 µM unless noted
This is part of a sample that, as a whole, favours compounds with a hit. Of some 83,000 tested, about 20% had one in any assay.
Your answer is read as %, so omit the unit and give the number.

Prompt: Reported growth for OC(c1cc(-c2ccc(Cl)cc2)nc2c(Cl)cccc12)C1CCCCN1 (stereo unspecified) : what is it?
Response: -86.7

Prompt: Could you do the same for O=C(CCCCCCN1CC(=O)N2[C@H](c3ccc(Br)cc3)c3[nH]c4ccccc4c3C[C@@H]2C1=O)NO , please?
Response: 33.9

Prompt: Could you do the same for Brc1cnc2ccccc2c1 , please?
Response: 113

Prompt: Could you do the same for COc1cccc2c1CN(C(=O)c1ccc(O)c(C(=O)N3Cc4ccc(OCCC[P+](c5ccccc5)(c5ccccc5)c5ccccc5)cc4C3)c1)C2 , please?
Response: -2.86

Prompt: Could you do the same for COc1cc(NCCN=C(N)NC(N)=NC(C)C)c2ncccc2c1 , please?
Response: -46.5

Prompt: Could you do the same for CSCCC(NC(=O)C(Cl)Cl)C(=O)O (stereo unspecified) , please?
Response: 94.6

Prompt: Could you do the same for Cc1ccc(/C=C/C(=O)c2ccc(F)cc2)s1 , please?
Response: 42.2

Prompt: Could you do the same for CN(C)c1ccc2c(c1)/C(=N/O)c1ccccc1-2 , please?
Response: 76.9

Prompt: Could you do the same for C=CCC(CCC(CC=C)C(=O)OCC)C(=O)OCC (stereo unspecified) , please?
Response: 108

Prompt: Could you do the same for N/C(=N\OC(=O)c1ccccc1)C(C(=O)NOC(=O)c1ccccc1)C1CCCCC1 (stereo unspecified) , please?
Response: 80.8

Prompt: Could you do the same for CC(=O)c1cc2ccccc2o1 , please?
Response: 109

Prompt: Could you do the same for CCOC(C=O)OCC , please?
Response: 102

Prompt: Could you do the same for O=C(/C=C\c1ccnc2ccccc12)c1ccc([N+](=O)[O-])cc1 , please?
Response: 57.5
